- Tested on: HepG2
- ASSAY EXPLANATION: cytotoxicity call (relative viability < 0.9)
- STUDY CONDITIONS: 10 µM
Out of some 39,000 compounds screened, about 3,300 (8.5%) were called active. Shown is part of a subset that was picked to be rich in actives.
Outcome field: choose from active, inactive

RECORD SMILES	GROUP LABEL
C[C@@H](NC(=O)C[C@@H]1CC[C@@H](NC(=O)CN2CCOCC2)[C@@H](CO)O1)c1ccccc1	inactive
CC(=O)O[C@H]1[C@H](O)[C@H](O)[C@H](O[C@@H]2[C@@H](Oc3cc(O)c4c(=O)cc(-c5ccc(O)c(O)c5)oc4c3)O[C@@H](C(=O)O)[C@H](O)[C@@H]2O)O[C@@H]1C	inactive
C=CCC[C@@H](Cc1ccc(F)cc1)C(=O)OC[C@@H](NC(=O)[C@H](CC=C)CC(=O)N(CCO)Cc1ccccc1)c1ccccc1	inactive
C[C@H](CO)N1C[C@H](C)[C@@H](CN(C)Cc2ccc(C(F)(F)F)cc2)Oc2ccc(NS(=O)(=O)c3ccc(Cl)cc3)cc2CC1=O	inactive

IN: Hi, do you know how C=CCC[C@@H](Cc1ccc(F)cc1)C(=O)O[C@@H](CNC(=O)[C@H](CC=C)CC(=O)N(CCO)Cc1ccccc1)c1ccccc1 came out in this test?
OUT: active

IN: Per the assay record, what outcome was assigned to COc1ccc(S(=O)(=O)Nc2ccc3c(c2)C(=O)N([C@H](C)CO)C[C@H](C)[C@@H](CN(C)S(=O)(=O)c2ccccc2)O3)cc1 ?
OUT: inactive

IN: Name the outcome recorded for C[C@@H]1CN([C@@H](C)CO)C(=O)c2cccc(NS(=O)(=O)c3cn(C)cn3)c2O[C@H]1CN(C)Cc1ccncc1 in the assay.
OUT: inactive

IN: How was C[C@H](CO)N1C[C@H](C)[C@H](CN(C)C(=O)Nc2ccc3c(c2)OCO3)Oc2c(NC(=O)c3ccncc3)cccc2C1=O classified in this test?
OUT: inactive
